- tgt: bovine trypsin (Bos taurus, UniProt P00760)
- Sequence (P00760 24-246): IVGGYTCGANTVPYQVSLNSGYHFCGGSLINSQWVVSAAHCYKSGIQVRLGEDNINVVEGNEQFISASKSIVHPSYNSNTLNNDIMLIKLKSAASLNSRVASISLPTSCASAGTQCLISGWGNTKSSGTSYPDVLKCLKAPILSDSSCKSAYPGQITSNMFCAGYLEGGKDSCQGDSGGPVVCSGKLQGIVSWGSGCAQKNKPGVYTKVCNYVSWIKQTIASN
- testSummary: Antitrypsin activity: inhibition of S-2238 decomposition
- Assay type: biochemical
- conditionInfo: Table 2; S-2238 substrate, pH 8.1, 37° C.; read-out: Trypsin S-2238 (I50)
Where a name gives a salt, the structure may show the parent alone.
metricName: pIC50
Keep it numeric: pIC50 is minus log10 of the concentration in mol/L.

Guide cases for pIC50, answers given:
[[record]]
compound = "C=CCOc1ccc(C[C@H](NC(=O)[C@H]2CC[C@H](CN)CC2)C(=O)Nc2ccc(C(C)=O)cc2)cc1"
metricname = "pIC50"
value = 6.14

[[record]]
compound = "CC(=O)c1ccc(NC(=O)C(Cc2ccc(Oc3cc(Cl)ccc3[N+](=O)[O-])cc2)NC(=O)C2CCC(CN)CC2)cc1 (stereo not shown)"
metricname = "pIC50"
value = 6.15


# pIC50 of NCc1ccc(C(=O)N[C@@H](Cc2ccc(OCc3ccccc3)cc2)C(=O)NC2CCC(O)CC2)cc1 (stereo partly shown) = 4.28

Per the record, CC(=O)c1ccc(NC(=O)[C@H](Cc2ccc(Oc3ccc([N+](=O)[O-])cc3)cc2)NC(=O)[C@H]2CC[C@H](CN)CC2)cc1 [Compound No. 95, hydrochloride] has pIC50 of 5.82

get_value(item= NCC1CCC(C(=O)NC(Cc2ccc(OCc3cccc(Cl)c3)cc2)C(=O)Nc2cccc(S(N)(=O)=O)c2)CC1 (stereo not shown) , readout=pIC50) returns 5.60

Record NC[C@H]1CC[C@H](C(=O)N[C@@H](Cc2ccc(OCc3ccc(Cl)c(Cl)c3)cc2)C(=O)Nc2ccncc2)CC1 , field pIC50: 5.74

According to the records, this compound Cc1ccc(NC(=O)[C@H](Cc2ccc(OCc3ccccc3)cc2)NC(=O)c2ccc(CN)cc2)cc1 displays pIC50 of 5.00

pIC50 measured on CCOC(=O)C1CCCC(NC(=O)[C@H](Cc2ccc(OCc3ccc(F)cc3)cc2)NC(=O)c2ccc(CN)cc2)C1 (stereo partly shown) = 5.60

Field pIC50 (entry NC[C@H]1CC[C@H](C(=O)N[C@@H](Cc2ccc(OCc3ccccc3)cc2)C(=O)Nc2ccc(S(N)(=O)=O)cc2)CC1 [Compound No. 47, hydrochloride] ) reads 5.12

---

- tgt: bovine trypsin (Bos taurus, UniProt P00760)
- testSummary: Antitrypsin activity: inhibition of S-2238 decomposition
- Type: biochemical
metricName: IC50

Test item CC(=O)NC(Cc1ccc([N+](=O)[O-])cc1)C(=O)Nc1ccc([N+](=O)[O-])cc1 (stereo not shown) [Table 3 Compound No. 4, reference compound] ; bovine trypsin (Bos taurus, UniProt P00760); reported IC50 was > 150 µM

---

- tgt: human urokinase (Homo sapiens, UniProt P00749)
- testSummary: biochemical
metricName: IC50

get_value(item= CC(=O)NC(Cc1ccc([N+](=O)[O-])cc1)C(=O)Nc1ccc([N+](=O)[O-])cc1 (stereo not shown) [Table 3 Compound No. 4, reference compound] , readout=IC50) returns > 100 µM

---

- tgt: human plasmin (Homo sapiens, UniProt P00747)
- Sequence (P00747 581-810 limits assumed): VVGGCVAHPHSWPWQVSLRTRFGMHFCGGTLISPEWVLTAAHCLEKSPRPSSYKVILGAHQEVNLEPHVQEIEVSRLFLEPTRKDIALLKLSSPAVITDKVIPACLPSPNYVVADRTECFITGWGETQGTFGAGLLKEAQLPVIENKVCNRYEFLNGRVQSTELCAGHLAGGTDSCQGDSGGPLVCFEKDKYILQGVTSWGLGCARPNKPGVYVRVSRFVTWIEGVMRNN
- Sequence (P00747 97-580 partner limits assumed): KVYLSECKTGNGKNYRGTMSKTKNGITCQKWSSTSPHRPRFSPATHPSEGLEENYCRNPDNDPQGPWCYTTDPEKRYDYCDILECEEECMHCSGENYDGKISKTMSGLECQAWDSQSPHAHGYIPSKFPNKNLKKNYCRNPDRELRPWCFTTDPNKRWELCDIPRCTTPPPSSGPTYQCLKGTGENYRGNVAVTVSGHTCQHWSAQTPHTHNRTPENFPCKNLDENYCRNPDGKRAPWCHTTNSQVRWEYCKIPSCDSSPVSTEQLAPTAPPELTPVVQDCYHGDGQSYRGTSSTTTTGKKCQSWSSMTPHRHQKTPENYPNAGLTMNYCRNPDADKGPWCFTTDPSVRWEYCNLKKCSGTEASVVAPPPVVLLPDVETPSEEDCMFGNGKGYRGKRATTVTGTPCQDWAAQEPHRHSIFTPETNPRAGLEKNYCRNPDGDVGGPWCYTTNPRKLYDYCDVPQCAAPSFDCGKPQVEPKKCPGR
- testSummary: biochemical
- conditionInfo: read-out: Plasmin S-2251 (I50)
Sorting guide: entries reporting IC50 beneath 2 µM go in the 1.0 pile, the rest go in the 0.0 pile.

Incoming: For NC[C@H]1CC[C@H](C(=O)N[C@@H](Cc2ccccc2)C(=O)Nc2ccc(C(=O)c3ccccc3)cc2)CC1 [Compound No. 1] , is the recorded IC50 below the cut-off of 2 µM?
Outgoing: 0.0

Incoming: Given the entry CC1CCC(NC(=O)[C@H](Cc2ccc(OCc3ccccc3)cc2)NC(=O)c2ccc(CN)cc2)CC1 (stereo partly shown) [compound 38] , would its reported IC50 be below 2 µM?
Outgoing: 0.0

Incoming: Please let me know if Cc1ccc(NC(=O)[C@H](Cc2ccc(OCc3ccccc3)cc2)NC(=O)[C@H]2CC[C@H](CN)CC2)cc1 [compound 26] shows IC50 below 2 µM.
Outgoing: 0.0

Incoming: Hello, I'm reviewing records and need to know if IC50 of NCc1ccc(C(=O)N[C@@H](Cc2ccc(OCc3ccccc3)cc2)C(=O)NC2CC3CCC2C3)cc1 (stereo partly shown) [compound 62] is below 2 µM. Could you check?
Outgoing: 1.0

Incoming: Does NCC1CCC(C(=O)NC(Cc2ccc(OCc3cccc(Cl)c3)cc2)C(=O)Nc2cccc(S(N)(=O)=O)c2)CC1 (stereo not shown) [compound 93] have IC50 strictly under 2 µM?
Outgoing: 1.0

Incoming: Does CC(=O)c1ccc(NC(=O)[C@H](Cc2ccc(OCC(=O)c3ccccc3)cc2)NC(=O)[C@H]2CC[C@H](CN)CC2)cc1 [compound 30] have IC50 strictly under 2 µM?
Outgoing: 1.0

Incoming: Lab log: compare recorded IC50 with 2 µM; is it strictly lower for NCc1ccc(C(=O)N[C@@H](Cc2ccccc2)C(=O)Nc2cccc(C(F)(F)F)c2)cc1 [compound 131] ?
Outgoing: 0.0
